Numbers sourced from ChEMBL document CHEMBL4627403.

- Experimental Protocol: Selectivity index, ratio of IC50 for human G6PDH to IC50 for Trypanosoma cruzi G6PDH
Measure Name: Ratio IC50

>>> obs_value("C[C@]12CC[C@H](OS(C)(=O)=O)C[C@@H]1CC[C@@H]1[C@@H]2CC[C@]2(C)C(=O)[C@H](Br)C[C@@H]12")
6
>>> obs_value("CC(=O)O[C@H]1CC[C@@]2(C)[C@@H](CC[C@@H]3[C@@H]2CC[C@]2(C)C(=O)[C@H](Br)C[C@@H]32)C1")
160
>>> obs_value("CC(C)C(=O)O[C@H]1CC[C@@]2(C)[C@@H](CC[C@@H]3[C@@H]2CC[C@]2(C)C(=O)[C@H](Br)C[C@@H]32)C1")
"> 400"
>>> obs_value("C[C@]12CC[C@H](OCCS(=O)(=O)N3CCOCC3)C[C@@H]1CC[C@@H]1[C@@H]2CC[C@]2(C)C(=O)[C@H](Br)C[C@@H]12")
"5 to 10"
>>> obs_value("C[C@]12CC[C@H](O)C[C@@H]1CC[C@@H]1[C@@H]2CC[C@]2(C)C(=O)[C@H](Br)C[C@@H]12 [16.ALPHA.-BROMOEPIANDROSTERONE]")
2
>>> obs_value("C[C@]12CC[C@H](OCC(=O)N3CCOCC3)C[C@@H]1CC[C@@H]1[C@@H]2CC[C@]2(C)C(=O)[C@H](Br)C[C@@H]12")
"5 to 10"
>>> obs_value("C[C@]12CC[C@H](OS(C)(=O)=O)C[C@@H]1CC[C@@H]1[C@@H]2CC[C@]2(C)C(=O)CC[C@@H]12")
2

====

- Test system: H9c2
- Experimental Protocol: Cytotoxicity against rat H9c2 cells at 20 uM after 72 hrs by Hoechst 33342 staining based fluorescence microscopy
- Assay type: cell-based
- Experimental Parameters: h9c2, 72 h
Measure Name: Activity

>>> obs_value("C[C@]12CC[C@H](OS(=O)(=O)CCN3CCOCC3)C[C@@H]1CC[C@@H]1[C@@H]2CC[C@]2(C)C(=O)CC[C@@H]12")
"Non-Toxic"
>>> obs_value("C[C@]12CC[C@H](OS(C)(=O)=O)C[C@@H]1CC[C@@H]1[C@@H]2CC[C@]2(C)C(=O)CC[C@@H]12")
"Non-Toxic"
>>> obs_value("C[C@]12CC[C@H](OS(C)(=O)=O)C[C@@H]1CC[C@@H]1[C@@H]2CC[C@]2(C)C(=O)[C@H](Br)C[C@@H]12")
"Toxic"

====

// reported EC50 per item
- Test system: Trypanosoma cruzi
- Experimental Protocol: Antitrypanosomal activity against Trypanosoma cruzi Y amastigotes infected in rat H9C2 cells after 72 hrs by Hoechst 33342 staining based fluorescence microscopy
- Type: functional, organism-based
- Experimental Parameters: H9c2, 72 h
Measure Name: EC50 (µM)

>>> obs_value("C[C@]12CC[C@H](OCC(=O)N3CCOCC3)C[C@@H]1CC[C@@H]1[C@@H]2CC[C@]2(C)C(=O)[C@H](Br)C[C@@H]12")
3.2
>>> obs_value("CC(=O)O[C@H]1CC[C@@]2(C)[C@@H](CC[C@@H]3[C@@H]2CC[C@]2(C)C(=O)[C@H](Br)C[C@@H]32)C1")
8.5
>>> obs_value("C[C@]12CC[C@H](OS(C)(=O)=O)C[C@@H]1CC[C@@H]1[C@@H]2CC[C@]2(C)C(=O)[C@H](Br)C[C@@H]12")
2.4
>>> obs_value("C[C@]12CCCC[C@@H]1CC[C@@H]1[C@@H]2CC[C@]2(C)C(=O)[C@H](Br)C[C@@H]12")
3.5
>>> obs_value("C[C@]12CC[C@H](O)C[C@@H]1CC[C@@H]1[C@@H]2CC[C@]2(C)C(=O)[C@H](Br)C[C@@H]12 [16.ALPHA.-BROMOEPIANDROSTERONE]")
6.4
>>> obs_value("CC(C)CO[C@H]1CC[C@@]2(C)[C@@H](CC[C@@H]3[C@@H]2CC[C@]2(C)C(=O)[C@H](Br)C[C@@H]32)C1")
4.2
>>> obs_value("C=CCC(=O)O[C@H]1CC[C@@]2(C)[C@@H](CC[C@@H]3[C@@H]2CC[C@]2(C)C(=O)[C@H](Br)C[C@@H]32)C1")
16.7
>>> obs_value("C[C@]12CC[C@H](OCCS(=O)(=O)N3CCOCC3)C[C@@H]1CC[C@@H]1[C@@H]2CC[C@]2(C)C(=O)[C@H](Br)C[C@@H]12")
2.4
